assay.summary: Temperature sensitivity of carboxylic acid extraction by 0.5 mol/kg Alamine 304 + 10% octanol in kerosene
Type: physicochemical
conditions: distribution coefficient at 30°C divided by that at 75°C; aqueous phase 0.2 mol/kg
metric: TS in Equilibrium with Aqueous Solutions of (mol/kg) 0.2

I: CC(O)C(=O)O (stereo not shown)
II: O=C(O)CCC(=O)O
Would you let me know which has the greater TS in Equilibrium with Aqueous Solutions of (mol/kg) 0.2 value, I or II ? To answer, give the label that identifies your chosen option. II
(II: 4.0, I: 2.4)

====

assay.summary: Temperature sensitivity of carboxylic acid extraction by 0.5 mol/kg Alamine 304 + 10% octanol in kerosene
Type: physicochemical
conditions: distribution coefficient at 30°C divided by that at 75°C; aqueous phase 0.2 mol/kg
metric: TS in Equilibrium with Aqueous Solutions of (mol/kg) 0.2

compound | observed.measurement
O=C(O)CCCC(=O)O | 4.5
O=C(O)CC(O)C(=O)O (centres unmarked) | 4.3
CC(C)C(=O)O | 1.5
O=C(O)[C@H](O)[C@@H](O)[C@H](O)[C@H](O)CO | 2.3
O=C(O)CC(O)(CC(=O)O)C(=O)O | 3.1

A: O=C(O)C(O)C(O)C(=O)O (centres unmarked)
B: O=C(O)CC(=O)O
C: O=C(O)/C=C\C(=O)O
Put the items in order so that reported TS in Equilibrium with Aqueous Solutions of (mol/kg) 0.2 rises from first to last. Write out the labels following the order that was asked for. C, B, A
